# subject-of-test: Snurportin-1 (Homo sapiens) + GTP-binding nuclear protein Ran (Homo sapiens) + Importin subunit beta-1 (Homo sapiens) (UniProt O95149+P62826+Q14974)
# method-notes: qHTS Assay for Inhibitors of RanGTP induced Rango (Ran-regulated importin-beta cargo) - Importin beta complex dissociation; note: nearly all actives have a fitted effect of over 45% in size
# condition-set: Biochemical FRET Rango-importin beta; series mostly up to 46.1 µM
Screen size: about 340,000 compounds; about 240 (0.071%) were called active. Roughly 5% stayed inconclusive and do not appear here. For the sample, actives were picked, then their nearest neighbours and some compounds at random.
quantity-measured: Potency

As a guide, the following entries are already answered.
INSERT INTO results (molecule, quantity_measured, recorded_result) VALUES
  ('CC(=NNC(=S)N1CCCCCC1)c1ccccn1', 'Potency', 'inactive'),
  ('Cn1cc(C2OC(=O)c3ccccc32)c2ccccc21 (stereo not given)', 'Potency', 'inactive'),
  ('COc1ccccc1N(CC(=O)Nc1c(C)n(C)n(-c2ccccc2)c1=O)S(=O)(=O)c1ccccc1', 'Potency', 'inactive'),
  ('c1ccc(C(=NNc2nc3ccccc3s2)c2ccccn2)cc1', 'Potency', 'inactive');

Give me measured Potency, please, for this molecule: COCCNc1ncnc2c1nc1n2CCCC1
inactive

Read off the recorded Potency for CCCN(CCC)S(=O)(=O)c1cc2c(cc1Br)CCN2C(=O)CC
inactive

Respond only with Potency recorded for Cc1onc(-c2c(F)cccc2Cl)c1C(=O)Nc1cccc(S(=O)(=O)N2CCCCC2)c1
inactive

Tell us which Potency value is on record for Cc1ccc(S(=O)(=O)N2CCN(C(=O)c3cc(S(=O)(=O)N4CCOCC4)ccc3F)CC2)cc1
inactive

Tell me measured Potency for Cc1ccc(S(=O)(=O)n2oc(=O)c(C3CCCCC3)c2N)cc1 please.
inactive
